# Test Details: method code SF-HPLC, from DOI: 10.1248/cpb.44.1338
Values of logP strictly less than 2 map to True, and values of at least 2 map to False.

Lookup: I'd appreciate it if you could check whether `CN(C)C(=O)Oc1ccc(C#N)cc1` has logP smaller than 2.
Found: True

Lookup: Here is the next compound: `CN(C)C(=O)Oc1cccc([N+](=O)[O-])c1`
Found: True

Lookup: What about `CN(C)C(=O)Oc1cccc(F)c1` ?
Found: True

Lookup: Cool, now `CCc1cccc(OC(=O)N(C)C)c1`
Found: False

Lookup: Same lookup for `CN(C)C(=O)Oc1ccc(Br)cc1` , please.
Found: False

Lookup: Next up: `CCCc1ccc(OC(=O)N(C)C)cc1`
Found: False

Lookup: What do we get for `CN(C)C(=O)Oc1cccc(N(C)C)c1` ?
Found: True

Lookup: Try this compound too: `CN(C)C(=O)Oc1cccc(C#N)c1`
Found: True
